Values were extracted from patent US6245780A.

Target: serotonin transporter (Rattus norvegicus)
Sequence (P31652 whole entry): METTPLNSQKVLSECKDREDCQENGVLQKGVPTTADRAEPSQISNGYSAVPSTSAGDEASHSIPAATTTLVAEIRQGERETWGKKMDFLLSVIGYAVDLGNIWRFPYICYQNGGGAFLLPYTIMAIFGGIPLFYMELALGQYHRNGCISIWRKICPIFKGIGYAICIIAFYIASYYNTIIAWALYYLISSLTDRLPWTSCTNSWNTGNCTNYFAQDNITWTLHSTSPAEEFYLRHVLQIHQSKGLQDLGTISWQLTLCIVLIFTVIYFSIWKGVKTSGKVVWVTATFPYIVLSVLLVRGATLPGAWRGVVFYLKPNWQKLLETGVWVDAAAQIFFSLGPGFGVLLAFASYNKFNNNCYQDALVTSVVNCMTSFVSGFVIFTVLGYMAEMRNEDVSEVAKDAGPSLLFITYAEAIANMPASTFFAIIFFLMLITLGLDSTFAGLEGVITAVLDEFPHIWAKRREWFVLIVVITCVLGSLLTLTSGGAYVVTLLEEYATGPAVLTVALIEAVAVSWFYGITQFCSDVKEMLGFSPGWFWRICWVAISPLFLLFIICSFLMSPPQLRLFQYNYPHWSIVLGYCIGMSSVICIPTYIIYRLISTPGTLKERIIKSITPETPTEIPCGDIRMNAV
Metric: pKi
The quantity pKi is defined as the negative base-10 logarithm of the molar concentration.

| Given smiles | Observed value |
| --- | --- |
| Fc1ccc2[nH]cc(CCCN3CCc4ccccc4C3)c2c1 | 8.31 |
| COc1cccc2c1CCN(CCCc1c[nH]c3ccc(F)cc13)C2 | 8.72 |
| N#Cc1ccc2[nH]cc([C@H]3CC[C@@H](N4CCc5ccccc5C4)CC3)c2c1 | 8.89 |

Consider the record given below.
State its pKi: COc1ccc2c(c1)CCN(CCCc1c[nH]c3ccc(F)cc13)C2
8.85
